Provide the recorded off-rate ratio kd pH5.5/kd pH7.4 for the entries that follow.
# subjectOfTest: T1, recombinant human TfR (2474-TR, R&D Systems), biotinylated (human, UniProt P02786 89-760, biotinylated with EZ-Link NHS-PEG4-Biotinylation Kit)
# T1 construct: Bought protein; also called immobilized recombinant human TfR; biotinylated human TfR
# protocolText: SPR (Biacore), ratio of the off rates on human TfR at the two pH values; the printed number equals kd at pH 5.5 divided by kd at pH 7.4

// solved cases for off-rate ratio kd pH5.5/kd pH7.4 follow
>>> observedmeasurement("BBB00677 (VHH, also called variant of BBB00533) VHH: EVQLVESGGGSVQPGGSLRLSCTASGRTFNYAMGWFRQAPGKNREFVATIDWKDGSSYYLDSVRGRFTIERDDAKNTVYLQMNSLRPEDAAVYTCAVGDGDYCSTYTCAAEVEYDYWGQGTLVTVSS")
1.74
>>> observedmeasurement("BBB00728 (VHH, Histidine mutant) VHH: EVQLVESGGGSVQPGGSLRLSCTASGRTFNYAMGWFRQAPGKNREFVATIDWKDGSSYYLDSVRGRFTIERDDAKNTVYLQMNSLRPEDAAVYTCAVGDGDYCSTYTCAAEVEYHYWGQGTLVTVSS")
1.62
>>> observedmeasurement("BBB00710 (VHH, also called histidine mutant of BBB00515) VHH: EVQLVESGGGSVQPGGSLRLSCTASGRTFNYAMGWFRQAPGKNREFVATIDWKDGHSYYLDSVRGRFTIERDDAKNTVYLQMNSLRPEDAAVYTCAVGDGDYCSTYTCAAEVEYDYWGQGTLVTVSS")
2.84

# input for lookup
IN: Give its off-rate ratio kd pH5.5/kd pH7.4 value. Item: BBB00694 (VHH, Histidine mutant) VHH: EVQLVESGGGSVQPGGSLRLSCTASHRTFNYAMGWFRQAPGKNREFVATIDWKDGSSYYLDSVRGRFTIERDDAKNTVYLQMNSLRPEDAAVYTCAVGDGDYCSTYTCAAEVEYDYWGQGTLVTVSS
OUT: 1.35

All figures here come from patent US20260274981A1.
